src = ChEMBL document CHEMBL1135811

# protocolText: Mean residence time following intravenous dosing
# Type: ADME, organism-based
# conditionNotes: in vivo
measuredQuantity: MRT (h)

Worked examples follow.
molecule: COc1ccc2c(c1)CCC1(CCN(CCc3ccc(F)cc3F)CC1)O2
measuredQuantity: MRT
recordedValue: 1.5

molecule: O=S(=O)(c1ccccc1)C1CCN(CCc2ccc(F)cc2F)CC1
measuredQuantity: MRT
recordedValue: 1

P. NC(=O)c1cccc(S(=O)(=O)C2CCN(CCc3ccc(F)cc3F)CC2)c1
Q. N#Cc1ccc(S(=O)(=O)C2CCN(CCc3ccc(F)cc3F)CC2)cc1
R. O=C(CN1CCC(S(=O)(=O)c2ccccc2)CC1)c1ccc(F)cc1
Query: Would you mind ranking these molecules by ascending MRT? Put the labels in the requested order and list them out.
Reply: R, P, Q
(R: 0.7 h, P: 1.1 h, Q: 2.3 h)

---

# protocolText: Area under concentration-time curve for 0-4 hr after oral dose 1 mg/kg
# Format: ADME, organism-based
# Parameters: time < 4 hr, dose 1 mg/kg, route oral
# conditionNotes: in vivo
measuredQuantity: AUC(0-t) at 4 h (ng·h/mL)

Worked examples follow.
smilesCode: NC(=O)c1ccc(S(=O)(=O)C2CCN(CCc3ccc(F)cc3F)CC2)cc1
unitOfMeasure: ng·h/mL
AUC(0-t) at 4 h: 199
//
smilesCode: N#Cc1ccc(S(=O)(=O)C2CCN(CCc3ccc(F)cc3F)CC2)cc1
unitOfMeasure: ng·h/mL
AUC(0-t) at 4 h: 177

A. O=C(CN1CCC(S(=O)(=O)c2ccccc2)CC1)c1ccc(F)cc1
B. NC(=O)c1cccc(S(=O)(=O)C2CCN(CCc3ccc(F)cc3F)CC2)c1
Query: Decide: A or B , by lowest recorded AUC(0-t) at 4 h. Your answer should be the label attached to the chosen record.
Reply: B
(B: 115 ng·h/mL, A: 171 ng·h/mL)

---

# protocolText: Maximum blood concentration after oral dose of […]
# Type: ADME, organism-based
# Parameters: dose 1.2 mg/kg, route oral
measuredQuantity: Cmax (ng/mL)
API: value field is a number in ng/mL; no unit string.

Query: Could you share which Cmax value was measured for COc1cccc([C@H](O)C2CCN(CCc3ccc(F)cc3)CC2)c1OC [VOLINANSERIN] ?
Reply: 2

---

# protocolText: Maximum blood concentration after oral dose 1 mg/kg
# Assay type: ADME, organism-based
# Parameters: dose 1 mg/kg, route oral
measuredQuantity: Cmax (ng/mL)

smilesCode: NC(=O)c1cccc(S(=O)(=O)C2CCN(CCc3ccc(F)cc3F)CC2)c1
unitOfMeasure: ng/mL
Cmax: 38

a. O=C(CN1CCC(S(=O)(=O)c2ccccc2)CC1)c1ccc(F)cc1
b. N#Cc1ccc(S(=O)(=O)C2CCN(CCc3ccc(F)cc3F)CC2)cc1
c. NC(=O)c1ccc(S(=O)(=O)C2CCN(CCc3ccc(F)cc3F)CC2)cc1
Query: Sort these molecules on Cmax so the largest reading comes first. Put the labels in the requested order and list them out.
Reply: a, c, b

---

# protocolText: Area under concentration-time curve for 0-4 hr after oral dose of 2.0 mg/kg
# Format: ADME, organism-based
# Set-up: time < 4 hr, dose 2 mg/kg, route oral
# conditionNotes: in vivo
measuredQuantity: AUC(0-t) at 4 h (ng·h/mL)

P. O=S1(=O)c2ccccc2CCC12CCN(CCc1ccc(F)cc1F)CC2
Q. OC1c2ccccc2CCC12CCN(CCc1ccccc1)CC2 (configuration not stated)
Query: When P and Q are compared, which has the higher number for AUC(0-t) at 4 h? Your answer should be the label attached to the chosen record.
Reply: Q
(Q: 3 ng·h/mL, P: 1 ng·h/mL)

---

# protocolText: Area under concentration-time curve for 0-4 hr after oral dose of 10 mg/kg
# Assay type: ADME, organism-based
# Design: time < 4 hr, dose 10 mg/kg, route oral
# conditionNotes: in vivo
measuredQuantity: AUC(0-t) at 4 h (ng·h/mL)
API: value field is a number in ng·h/mL; no unit string.

Query: Could you share which AUC(0-t) at 4 h value was measured for `O=S(=O)(c1ccccc1)C1CCN(CCc2ccc(F)cc2F)CC1` ?
Reply: 100

---

# protocolText: Maximum blood concentration after oral dose of 2.0 mg/kg
# Assay type: ADME, organism-based
# Parameters: dose 2 mg/kg, route oral
measuredQuantity: Cmax (ng/mL)

I. OC1c2ccccc2CCC12CCN(CCc1ccccc1)CC2 (configuration not stated)
II. O=S1(=O)c2ccccc2CCC12CCN(CCc1ccc(F)cc1F)CC2
Query: Decide: I or II , by lowest recorded Cmax. Your answer should be the label attached to the chosen record.
Reply: II
